- Tested on: Plasmodium falciparum
- protocolSummary: MMV: P. falciparum NF54 functionally mature Stage V gametocytes were incubated for 24 hr in the presence of the test compounds. Gamete formation was then triggered by addition of 2uM xantheurenic acid and temperature decrease to ~20C. Female gamete formation was recorded 24 hr later by automated microscopy detection of surface labelling of female gametes with a Cy3-conjugated antibody reactive to Pfs25. All compounds were tested in 4 independent experiments and data presented here is the mean. IC50s determined for selected compounds.
- Format: functional, organism-based
- recordedConditions: NF54, 24 h
pIC50: −log10 of the molar value.
measuredParameter: pIC50

See these solved cases before continuing.
INSERT INTO measurements (compound, result) VALUES
  ('COc1ccc(-c2cc3c(nn2)-c2ccccc2C3=O)cc1', '< 4.30'),
  ('CCOC(=O)c1ccc2nc(-c3ccccc3)cc(O)c2c1', '< 4.30');

Next:
input: // returns reported pIC50 for input O=C1c2ccccc2C2=Nc3ccccc3SC(c3cccc(F)c3)C12 (stereo not drawn)
output: < 4.30
